These entries and their values trace back to patent US11267824B2.

- target or test system: Recombinant human TDO comprising amino acids 19-407 (Homo sapiens (Human))
- Sequence (P48775 19-406 limits assumed): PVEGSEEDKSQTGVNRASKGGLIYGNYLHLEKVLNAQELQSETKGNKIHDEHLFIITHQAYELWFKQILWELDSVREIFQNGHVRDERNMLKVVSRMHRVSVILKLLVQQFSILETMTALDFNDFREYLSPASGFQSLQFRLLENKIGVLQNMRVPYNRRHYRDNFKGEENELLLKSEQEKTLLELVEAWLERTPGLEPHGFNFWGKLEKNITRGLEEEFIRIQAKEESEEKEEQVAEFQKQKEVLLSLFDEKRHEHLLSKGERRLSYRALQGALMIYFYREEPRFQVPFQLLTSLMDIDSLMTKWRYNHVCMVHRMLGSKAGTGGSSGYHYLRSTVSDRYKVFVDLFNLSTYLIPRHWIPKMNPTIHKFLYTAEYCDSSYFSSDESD
- test name: TDO2 enzymatic assay (TDO inhibitory activity)
- Type: biochemical
- condition details: 15 nM enzyme, 200 μM L-tryptophan, pH7, 30 min pre-incubation, NFK quantified by LCMS; mean values if measured multiple times; read-out: hTDO activity (IC50 in nM)
Checkbox rule: IC50 lower than 2000 nM = condition met; IC50 not lower than 2000 nM = condition not met.

Take a look at these entries with their results.
COC1CCCC(CC(O)c2c(C3CC3)sc3cncn23)C1 (centres unmarked)
condition met
OC(CC1CCCC1)c1c(C(F)(F)F)sc2cncn12 (racemic)
condition not met
CC1CCC(C(O)c2c(C(F)(F)F)sc3cncn23)C1 (centres unmarked)
condition met

**Query** Hello, I'm reviewing records and need to know if IC50 of O[C@@H](CC1CCCC1)c1c(C2CC2)sc2cncn12 [Example 24a] is below 2000 nM. Could you check?
**Result** condition met

**Query** Determine if CC1(C)CCCCC1CC(O)c1c(C2CC2)sc2cncn12 (centres unmarked) shows IC50 strictly lower than 2000 nM.
**Result** condition met
